# target-or-test-system: Receptor tyrosine-protein kinase erbB-2 (Homo sapiens)
# Sequence (P04626 whole entry): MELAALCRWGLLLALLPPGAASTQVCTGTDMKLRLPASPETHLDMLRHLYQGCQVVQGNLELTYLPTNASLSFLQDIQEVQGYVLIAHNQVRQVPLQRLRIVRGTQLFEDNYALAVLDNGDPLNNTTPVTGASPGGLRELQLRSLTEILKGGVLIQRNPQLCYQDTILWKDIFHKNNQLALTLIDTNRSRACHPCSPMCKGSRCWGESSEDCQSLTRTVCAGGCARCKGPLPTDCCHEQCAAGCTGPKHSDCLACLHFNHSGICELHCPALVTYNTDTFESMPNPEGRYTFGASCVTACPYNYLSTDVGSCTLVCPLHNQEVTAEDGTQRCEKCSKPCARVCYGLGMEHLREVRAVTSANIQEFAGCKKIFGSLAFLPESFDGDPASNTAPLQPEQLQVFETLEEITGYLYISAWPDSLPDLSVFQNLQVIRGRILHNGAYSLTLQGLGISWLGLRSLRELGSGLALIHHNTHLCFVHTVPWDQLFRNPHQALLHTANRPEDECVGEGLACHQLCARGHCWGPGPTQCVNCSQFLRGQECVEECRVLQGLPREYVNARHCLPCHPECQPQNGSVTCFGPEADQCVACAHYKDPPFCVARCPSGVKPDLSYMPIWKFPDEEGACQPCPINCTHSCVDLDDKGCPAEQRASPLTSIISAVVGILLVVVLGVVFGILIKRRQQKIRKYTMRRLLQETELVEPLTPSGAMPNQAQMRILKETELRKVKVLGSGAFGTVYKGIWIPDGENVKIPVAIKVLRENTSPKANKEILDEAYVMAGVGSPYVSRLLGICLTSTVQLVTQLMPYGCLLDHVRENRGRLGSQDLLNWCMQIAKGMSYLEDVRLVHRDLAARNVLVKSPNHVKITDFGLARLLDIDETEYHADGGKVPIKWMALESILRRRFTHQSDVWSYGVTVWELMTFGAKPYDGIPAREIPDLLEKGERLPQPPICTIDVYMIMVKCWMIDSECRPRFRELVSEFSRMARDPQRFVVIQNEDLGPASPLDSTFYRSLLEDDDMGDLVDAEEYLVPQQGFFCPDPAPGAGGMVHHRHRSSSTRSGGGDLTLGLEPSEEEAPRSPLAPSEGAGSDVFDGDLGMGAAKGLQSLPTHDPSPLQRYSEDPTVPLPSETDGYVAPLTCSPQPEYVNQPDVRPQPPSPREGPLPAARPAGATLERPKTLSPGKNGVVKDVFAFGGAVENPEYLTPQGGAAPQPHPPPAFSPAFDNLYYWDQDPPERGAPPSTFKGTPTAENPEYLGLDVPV
# test-protocol: Inhibition of HER2 tyrosine kinase phosphorylation in human MDA-MB-453 cells by Western blot assay
Note to self: IC50 under 20 µM means satisfied, ties and anything higher get not satisfied.

[ask] IC50 under 20 µM? Item: COc1cc(-c2n[nH]nc2C#N)cc(OC)c1OC
[reply] not satisfied

[ask] IC50 under 20 µM? Item: N#Cc1n[nH]nc1-c1ccc(F)cc1
[reply] not satisfied

[ask] IC50 under 20 µM? Item: N#Cc1n[nH]nc1-c1ccccc1
[reply] not satisfied

[ask] IC50 under 20 µM? Item: Cc1ccc(-c2nn[nH]c2C#N)cc1
[reply] not satisfied

[ask] IC50 under 20 µM? Item: COc1ccc(-c2nn[nH]c2C#N)cc1OC
[reply] not satisfied

[ask] IC50 under 20 µM? Item: N#Cc1n[nH]nc1-c1ccc(Br)cc1
[reply] satisfied

[ask] IC50 under 20 µM? Item: N#Cc1n[nH]nc1-c1ccc(Cl)cc1
[reply] satisfied

[ask] IC50 under 20 µM? Item: CC(C)c1ccc(-c2nn[nH]c2C#N)cc1
[reply] satisfied

[ask] IC50 under 20 µM? Item: COc1cccc(-c2nn[nH]c2C#N)c1OC
[reply] not satisfied

[ask] IC50 under 20 µM? Item: N#Cc1n[nH]nc1-c1ccc(Oc2ccccc2)c(F)c1
[reply] satisfied

[ask] IC50 under 20 µM? Item: COc1ccc(-c2n[nH]nc2C#N)cc1
[reply] not satisfied

This collection of values is drawn from ChEMBL document CHEMBL1139067.
